Entry source: ChEMBL document CHEMBL4049439

Entries and their half-life values follow.
method: Terminal half-life in Wistar rat at 10 mg/kg, iv by LC-MS/MS analysis
Type: ADME, organism-based
test context: in vivo, read-out: beta t1/2 (converted)
readout kind: half-life (h)

{"molecule smiles": "COc1ccc2ccc(=O)n(C[C@H](N)[C@@H]3CC[C@@H](NCc4ccc5c(n4)NC(=O)CO5)CO3)c2n1", "readout kind": "half-life", "reading unit": "h", "endpoint value": 9.1}
{"molecule smiles": "COc1ccc2ncc(F)c(C[C@H](N)[C@@H]3CC[C@@H](NCc4ccc5c(n4)NC(=O)CO5)CO3)c2n1", "readout kind": "half-life", "reading unit": "h", "endpoint value": 8.8}

----------
method: Fraction unbound in Wistar rat plasma at 10 mg/kg, iv by rapid equilibrium dialysis
Type: ADME, organism-based
readout kind: fraction unbound

{"molecule smiles": "COc1ccc2ncc(F)c(C[C@H](N)[C@@H]3CC[C@@H](NCc4ccc5c(n4)NC(=O)CO5)CO3)c2n1", "endpoint value": 0.15}
{"molecule smiles": "COc1ccc2ccc(=O)n(C[C@H](N)[C@@H]3CC[C@@H](NCc4ccc5c(n4)NC(=O)CO5)CO3)c2n1", "endpoint value": 0.236}

----------
Tested on: Escherichia coli
method: Antibacterial activity against wild-type Escherichia coli ATCC 25922 by CLSI broth microdilution method
Type: functional
Entries and their MIC values follow.
readout kind: MIC (µg/mL)

{"compound": "COc1ccc2ccc(=O)n(C[C@H](O)[C@@H]3CC[C@@H](NCc4ccc5c(n4)NC(=O)CO5)CO3)c2n1", "tested system": "Escherichia coli", "qualifying sign": "=", "endpoint value": 0.5}
{"compound": "COc1ccc2ccc(=O)n(C[C@H](N)[C@@H]3CC[C@@H](NCc4ccc5c(n4)NC(=O)CO5)CO3)c2c1", "tested system": "Escherichia coli", "qualifying sign": "=", "endpoint value": 0.25}
{"compound": "COc1ccc2ncc(F)c(CC(N)[C@@H]3CC[C@@H](NCc4ccc5c(n4)NC(=O)CO5)CO3)c2n1 (mixture of isomers)", "tested system": "Escherichia coli", "qualifying sign": "=", "endpoint value": 0.25}
{"compound": "COc1cnc2ccc(=O)n(C[C@H](N)[C@@H]3CC[C@@H](NCc4ccc5c(n4)NC(=O)CO5)CO3)c2n1", "tested system": "Escherichia coli", "qualifying sign": "=", "endpoint value": 0.5}
{"compound": "COc1ccc2ccc(=O)n(C[C@H](N)[C@@H]3CC[C@@H](NCc4ccc5c(n4)NC(=O)CO5)CO3)c2n1", "tested system": "Escherichia coli", "qualifying sign": "=", "endpoint value": 0.25}
{"compound": "COc1ccc2ncc(F)c(C[C@@H](N)[C@@H]3CC[C@@H](NCc4ccc5c(n4)NC(=O)CO5)CO3)c2n1", "tested system": "Escherichia coli", "qualifying sign": "=", "endpoint value": 1}
{"compound": "COc1ccc2ccc(=O)n(C[C@H](O)[C@@H]3CC[C@@H](NCc4cc5c(nn4)OCCO5)CO3)c2n1", "tested system": "Escherichia coli", "qualifying sign": ">", "endpoint value": 8}
{"compound": "COc1ccc2ccc(=O)n(C[C@H](O)[C@@H]3CC[C@@H](NCc4cc5c(nn4)OCCS5)CO3)c2n1", "tested system": "Escherichia coli", "qualifying sign": ">", "endpoint value": 8}
{"compound": "COc1ccc2ncc(F)c(C[C@H](N)[C@@H]3CC[C@@H](NCc4ccc5c(n4)NC(=O)CO5)CO3)c2n1", "tested system": "Escherichia coli", "qualifying sign": "=", "endpoint value": 0.125}
{"compound": "COc1ccc2ccc(F)c(C[C@H](N)[C@@H]3CC[C@@H](NCc4ccc5c(n4)NC(=O)CO5)CO3)c2n1", "tested system": "Escherichia coli", "qualifying sign": "≤", "endpoint value": 0.03}
{"compound": "COc1ccc2nccc(C(N)C[C@@H]3CC[C@@H](NCc4ccc5c(n4)NC(=O)CO5)CO3)c2n1 (mixture of isomers)", "tested system": "Escherichia coli", "qualifying sign": "=", "endpoint value": 1}

----------
Test system: Pseudomonas aeruginosa
method: Antibacterial activity against Pseudomonas aeruginosa ATCC 27853 by CLSI broth microdilution method
Format: functional
readout kind: MIC

{"molecule": "COc1ccc2nccc(C[C@H](N)[C@@H]3CC[C@@H](NCc4ccc5c(n4)NC(=O)CO5)CO3)c2n1", "endpoint value": "0.5 µg/mL"}
{"molecule": "COc1ccc2ncc(F)c(CC(N)[C@@H]3CC[C@@H](NCc4ccc5c(n4)NC(=O)CO5)CO3)c2n1 (mixture of isomers)", "endpoint value": "4 µg/mL"}
{"molecule": "COc1cnc2ccc(=O)n(C[C@H](N)[C@@H]3CC[C@@H](NCc4ccc5c(n4)NC(=O)CO5)CO3)c2n1", "endpoint value": "1 µg/mL"}
{"molecule": "COc1ccc2nccc(C(N)C[C@@H]3CC[C@@H](NCc4ccc5c(n4)NC(=O)CO5)CO3)c2n1 (mixture of isomers)", "endpoint value": "8 µg/mL"}
{"molecule": "COc1ccc2ccc(=O)n(C[C@H](O)[C@@H]3CC[C@@H](NCc4cc5c(cn4)OCCS5)CO3)c2n1", "endpoint value": "> 8 µg/mL"}
{"molecule": "COc1ccc2ncc(F)c(C[C@@H](N)[C@@H]3CC[C@@H](NCc4ccc5c(n4)NC(=O)CO5)CO3)c2n1", "endpoint value": "> 8 µg/mL"}
{"molecule": "COc1ccc2ccc(=O)n(C[C@H](N)[C@@H]3CC[C@@H](NCc4ccc5c(n4)NC(=O)CO5)CO3)c2c1", "endpoint value": "4 µg/mL"}
{"molecule": "COc1ccc2ncc(=O)n(C[C@H](N)[C@@H]3CC[C@@H](NCc4ccc5c(n4)NC(=O)CO5)CO3)c2n1", "endpoint value": "2 µg/mL"}
{"molecule": "COc1ccc2ncc(F)c(C[C@H](N)[C@@H]3CC[C@@H](NCc4ccc5c(n4)NC(=O)CO5)CO3)c2n1", "endpoint value": "1 µg/mL"}
{"molecule": "COc1cnc2ccc(=O)n(C[C@H](N)[C@@H]3CC[C@@H](NCc4ccc5c(n4)NC(=O)CO5)CO3)c2c1", "endpoint value": "4 µg/mL"}
{"molecule": "COc1ccc2ccc(=O)n(C[C@H](O)[C@@H]3CC[C@@H](NCc4cc5c(nn4)OCCO5)CO3)c2n1", "endpoint value": "> 8 µg/mL"}
{"molecule": "COc1ccc2ccc(=O)n(C[C@H](O)[C@@H]3CC[C@@H](NCc4cc5c(cn4)OCCO5)CO3)c2n1", "endpoint value": "> 8 µg/mL"}
{"molecule": "COc1ccc2ccc(=O)n(C[C@H](N)[C@@H]3CC[C@@H](NCc4ccc5c(n4)NC(=O)CO5)CO3)c2n1", "endpoint value": "1 µg/mL"}
{"molecule": "COc1ccc2ccc(F)c(C[C@H](N)[C@@H]3CC[C@@H](NCc4ccc5c(n4)NC(=O)CO5)CO3)c2n1", "endpoint value": "1 µg/mL"}
{"molecule": "COc1ccc2ccc(=O)n(C[C@H](O)[C@@H]3CC[C@@H](NCc4ccc5c(n4)NC(=O)CO5)CO3)c2n1", "endpoint value": "8 µg/mL"}

----------
method: Fraction unbound in Wistar rat plasma at 1 mg/kg, iv by rapid equilibrium dialysis
Format: ADME, organism-based
readout kind: fraction unbound

{"molecule smiles": "COc1ccc2ccc(=O)n(C[C@H](O)[C@@H]3CC[C@@H](NCc4ccc5c(n4)NC(=O)CO5)CO3)c2n1", "endpoint value": 0.167}
{"molecule smiles": "COc1ccc2ncc(F)c(C[C@H](O)[C@@H]3CC[C@@H](NCc4ccc5c(n4)NC(=O)CO5)CO3)c2n1", "endpoint value": 0.086}

----------
method: Volume of distribution at steady state in Wistar rat at 1 mg/kg, iv by LC-MS/MS analysis
Type: ADME, organism-based
test context: in vivo, read-out: Vdss
readout kind: Vd

{"molecule smiles": "COc1ccc2ncc(F)c(C[C@H](O)[C@@H]3CC[C@@H](NCc4ccc5c(n4)NC(=O)CO5)CO3)c2n1", "endpoint value": "2.5 L/kg"}
{"molecule smiles": "COc1ccc2ccc(=O)n(C[C@H](O)[C@@H]3CC[C@@H](NCc4ccc5c(n4)NC(=O)CO5)CO3)c2n1", "endpoint value": "2.5 L/kg"}

----------
Entries and their pIC50 values follow.
method: Inhibition of wild-type Pseudomonas aeruginosa DNA topoisomerase-4 mediated supercoiled pBR322 DNA relaxation by ethidium bromide based agarose gel electrophoresis
pIC50: −log10 of the molar value.

{"compound": "COc1ccc2ccc(=O)n(C[C@H](N)[C@@H]3CC[C@@H](NCc4ccc5c(n4)NC(=O)CO5)CO3)c2c1", "qualifying sign": "=", "pIC50": 6.30}
{"compound": "COc1cnc2ccc(=O)n(C[C@H](N)[C@@H]3CC[C@@H](NCc4ccc5c(n4)NC(=O)CO5)CO3)c2c1", "qualifying sign": "=", "pIC50": 7.52}
{"compound": "COc1ccc2ccc(=O)n(C[C@H](O)[C@@H]3CC[C@@H](NCc4cc5c(cn4)OCCS5)CO3)c2n1", "qualifying sign": "≥", "pIC50": 8.00}
{"compound": "COc1ccc2ncc(F)c(C[C@H](N)[C@@H]3CC[C@@H](NCc4ccc5c(n4)NC(=O)CO5)CO3)c2n1", "qualifying sign": "=", "pIC50": 7.52}
{"compound": "COc1ccc2ncc(F)c(C[C@@H](N)[C@@H]3CC[C@@H](NCc4ccc5c(n4)NC(=O)CO5)CO3)c2n1", "qualifying sign": "=", "pIC50": 6.90}
{"compound": "COc1ccc2ccc(=O)n(C[C@H](O)[C@@H]3CC[C@@H](NCc4ccc5c(n4)NC(=O)CO5)CO3)c2n1", "qualifying sign": "=", "pIC50": 7.52}
{"compound": "COc1ccc2nccc(C[C@H](N)[C@@H]3CC[C@@H](NCc4ccc5c(n4)NC(=O)CO5)CO3)c2n1", "qualifying sign": "=", "pIC50": 7.52}
{"compound": "COc1cnc2ccc(=O)n(C[C@H](N)[C@@H]3CC[C@@H](NCc4ccc5c(n4)NC(=O)CO5)CO3)c2n1", "qualifying sign": "=", "pIC50": 7.52}
{"compound": "COc1ccc2nccc(CC(N)[C@@H]3CC[C@@H](NCc4ccc5c(n4)NC(=O)CO5)CO3)c2n1 (mixture of isomers)", "qualifying sign": "=", "pIC50": 6.30}
{"compound": "COc1ccc2ncc(F)c(C[C@H](O)[C@@H]3CC[C@@H](NCc4cc5c(nn4)OCCS5)CO3)c2n1", "qualifying sign": "=", "pIC50": 6.90}
{"compound": "COc1ccc2ncc(F)c(CC(N)[C@@H]3CC[C@@H](NCc4ccc5c(n4)NC(=O)CO5)CO3)c2n1 (mixture of isomers)", "qualifying sign": "=", "pIC50": 7.52}
{"compound": "COc1ccc2ccc(=O)n(C[C@H](O)[C@@H]3CC[C@@H](NCc4cc5c(nn4)OCCO5)CO3)c2n1", "qualifying sign": "=", "pIC50": 6.30}
{"compound": "O=C(O)c1cn(C2CC2)c2cc(N3CCNCC3)c(F)cc2c1=O", "qualifying sign": "=", "pIC50": 5.10}
{"compound": "COc1ccc2ncc(=O)n(C[C@H](N)[C@@H]3CC[C@@H](NCc4ccc5c(n4)NC(=O)CO5)CO3)c2n1", "qualifying sign": "=", "pIC50": 7.52}
{"compound": "COc1ccc2ccc(F)c(C[C@H](N)[C@@H]3CC[C@@H](NCc4ccc5c(n4)NC(=O)CO5)CO3)c2n1", "qualifying sign": "=", "pIC50": 7.52}
{"compound": "COc1ccc2ccc(=O)n(C[C@H](N)[C@@H]3CC[C@@H](NCc4ccc5c(n4)NC(=O)CO5)CO3)c2n1", "qualifying sign": "=", "pIC50": 7.52}
{"compound": "COc1ccc2ccc(=O)n(C[C@H](O)[C@@H]3CC[C@@H](NCc4cc5c(nn4)OCCS5)CO3)c2n1", "qualifying sign": "=", "pIC50": 6.90}
